assayComment: Inhibition of porcine cerebral cortex Na+/K+ ATPase assessed as formation of fluorescent 3-O-methylfluorescein from 3-O-methylfluorescein phosphate by fluorometry
Assay type: tissue-based, Sus scrofa
pIC50: −log10 of the molar value.
Catalogue of pIC50 values
propertyLabel: pIC50

1. Oc1c(Br)cc(C(O)c2nccc3c2[nH]c2ccc(Br)cc23)cc1Br (stereo unspecified) ... 4.48
2. O=C(c1ccc(O)cc1)c1nccc2c1[nH]c1ccc(Br)cc12 ... 3.68
3. Oc1ccc(C(O)c2nccc3c2[nH]c2ccc(Br)cc23)cc1Br (stereo unspecified) ... 4.48
4. O=C(c1cc(Br)c(O)c(Br)c1)c1nccc2c1[nH]c1ccc(Br)cc12 ... 5.00
5. O=C(c1cc(Br)c(O)c(Br)c1)c1nccc2c1[nH]c1ccccc12 ... 4.70
6. O=C(c1cc(Br)c(O)c(Br)c1)c1nccc2c1[nH]c1cc(Br)ccc12 ... 4.95
7. Oc1c(Br)cc(C(O)c2nccc3c2[nH]c2ccccc23)cc1Br (stereo unspecified) ... 3.91
8. O=C(c1ccc(O)c(Br)c1)c1nccc2c1[nH]c1ccc(Br)cc12 ... 5.12
9. C[C@@H]1O[C@@H](O[C@H]2C[C@@H](O)[C@]3(CO)[C@H]4[C@H](O)C[C@]5(C)[C@@H](C6=CC(=O)OC6)CC[C@]5(O)[C@@H]4CC[C@]3(O)C2)[C@H](O)[C@H](O)[C@H]1O ... 5.20
10. O=C(c1ccc(O)c(Br)c1)c1nccc2c1[nH]c1ccccc12 ... 4.65
